Values were extracted from patent US20210317231A1.

// reported fold improvement of binding compared to H8 on cyno 5T4 per item
Biological target: T1, cynomolgus monkey 5T4 antigen (cynomolgus monkey, UniProt Q4R8Y9 35-420)
T1 construct: whole, on cells; also called cyno 5T4
T1 sequence (looked up): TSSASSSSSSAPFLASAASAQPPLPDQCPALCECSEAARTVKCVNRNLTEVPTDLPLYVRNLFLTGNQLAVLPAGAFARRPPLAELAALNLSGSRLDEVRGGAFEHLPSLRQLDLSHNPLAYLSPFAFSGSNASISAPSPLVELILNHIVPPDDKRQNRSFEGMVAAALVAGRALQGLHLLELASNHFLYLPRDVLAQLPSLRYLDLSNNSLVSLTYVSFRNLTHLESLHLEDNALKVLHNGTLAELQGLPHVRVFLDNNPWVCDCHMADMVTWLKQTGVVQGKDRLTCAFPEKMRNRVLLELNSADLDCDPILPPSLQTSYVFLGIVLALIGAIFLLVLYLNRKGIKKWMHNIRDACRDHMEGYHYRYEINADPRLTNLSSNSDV
Assay: flow cytometry, CHOZN cells expressing cyno 5T4
recordedEndpoint: fold improvement of binding compared to H8 on cyno 5T4 (fold)

* chimeric anti-5T4 monoclonal antibody 825 (antibody, human IgG1, V domains shown, also called clone 825) VH: QSVEESGGRLVTPGTPLTLTCTVSGIDLSSYGMGWVRQAPGKGLEYIGIISRNSVTYYATWAKGRFTISKTSTTVDLKMTSPTTEDTATYFCARRATYSGALGYFDIWGPGTLVTVSF VL: GYDMTQTPASVSAAVGGTVTINCQASENIYSTLAWYQQKPGQPPKVLIYDAFDLASGVPSRFKGSGSGTEYTLTISGVQSDDAATYYCQQGYSGTNVDNAFGGGTEVVVK | 32
* chimeric anti-5T4 monoclonal antibody 899 (antibody, human IgG1, V domains shown) VH: QSVEESGGRLVTPGTPLTLTCTVSGFSLSSYTMSWVRQAPGKGLEYIGIISSSDGTWYANWVKGRFTISKTSTTVDLKMTSLTTEDTATYFCARDGTGNKYYTWDRLDLWGQGTLVTVSS VL: NIVMTQTPSPVSGAVGGTVTINCQASQSIYNELSWYQQKPGQPPKLLIYYASTLASGVSSRFKGSGSGTQFTLTISGVESVDAATYYCQQGYSSSNVDNVFGGGTEVVVK | 32
* chimeric anti-5T4 monoclonal antibody 908 (antibody, human IgG1, V domains shown) VH: QSVEESGGRLVTPGTPLTLTCTVSGFSLSNFAMSWVRQAPGKGLEWIGIINGYGSIYYATWAKGRFTISKTSTTVDLKITSPTTEDTATYFCARGDAGRTYNHYFNIWGPGTLVTVSL VL: DVVMTQTPASVEAAVGGTVTIKCQASQSISSWLSWYQQKPGQRPKLLIYAASNLASGVPSRFKGSGSGTQFTLTISDLESDDAATYYCQQGYTSYNVDNAFGGGTEVVVK | 32
